Source: patent US6906033

# Measurement Target: T1, human factor Xa (human, UniProt P00742 41-179; P00742 235-488)
# T1 chain 1: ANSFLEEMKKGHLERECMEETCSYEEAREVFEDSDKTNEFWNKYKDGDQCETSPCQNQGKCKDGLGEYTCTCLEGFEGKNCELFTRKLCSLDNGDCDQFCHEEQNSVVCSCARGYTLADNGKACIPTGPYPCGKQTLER
# T1 chain 2: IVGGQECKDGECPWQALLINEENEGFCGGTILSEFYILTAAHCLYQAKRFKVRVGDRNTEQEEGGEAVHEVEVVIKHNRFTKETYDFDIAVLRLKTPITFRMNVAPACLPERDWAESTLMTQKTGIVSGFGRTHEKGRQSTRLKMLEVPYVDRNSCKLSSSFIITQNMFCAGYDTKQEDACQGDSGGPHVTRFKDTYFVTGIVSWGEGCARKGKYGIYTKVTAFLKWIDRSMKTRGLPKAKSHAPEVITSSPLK
# Test Description: enzyme inhibition
Class (required): determined from Ki; valid ranges are low = under 70 nM, moderate = from 70 nM up to 200 nM, high = 200 nM and over

# Binder, Classification
data = [
    ("TW6142 (protein) EVVREVCSEQAETGPCRAMISRWYFDVTEGKCAPFVYGGCGGNRNNFDTEEYCMAVCGSAI", "high"),
    ("TW6154 (protein) EVVREVCSEQAETGPCRAMISRWYFDVTEGKCAPFFYGGCLGNRNNFDTEEYCMAVCGSAI", "low"),
    ("TW6157 (protein) EVVREVCSEQAETGPCRAMISRWYFDVTEGKCAPFFYGGCSGNRNNFDTEEYCMAVCGSAI", "moderate"),
    ("AL302 (protein) EVVREVCSEQAETGPCRAMISRWYFDVTEGKCAPFGYGGCGGNRNNFDTEEYCMAVCGSAI", "high"),
    ("TW6138 (protein) EVVREVCSEQAETGPCRAMISRWYFDVTEGKCAPFFYGGCKGNRNNFDTEEYCMAVCGSAI", "high"),
    ("TW6209 (protein) EVVREVCSEQAETGPCRAMISHWYFDVTEGKCAPFFYGGCGGNRNNFDTEEYCMAVCGSAI", "high"),
    ("TW6147 (protein) EVVREVCSEQAETGPCRAMISRWYFDVTEGKCAPFFYGGCAGNRNNFDTEEYCMAVCGSAI", "moderate"),
    ("TW6155 (protein) EVVREVCSEQAETGPCRAMISRWYFDVTEGKCAPFFYGGCMGNRNNFDTEEYCMAVCGSAI", "low"),
    ("DD128 (protein) EVVREVCSEQAETGPCRAMISLWYFDVTEGKCAPFFYGGCGGNRNNFDTEEYCMAVCGSAI", "low"),
]
